src = PubChem BioAssay AID588710

Biological target: Metabotropic glutamate receptor 5 (Rattus norvegicus) (UniProt P31424)
Sequence (P31424 whole entry, looked up): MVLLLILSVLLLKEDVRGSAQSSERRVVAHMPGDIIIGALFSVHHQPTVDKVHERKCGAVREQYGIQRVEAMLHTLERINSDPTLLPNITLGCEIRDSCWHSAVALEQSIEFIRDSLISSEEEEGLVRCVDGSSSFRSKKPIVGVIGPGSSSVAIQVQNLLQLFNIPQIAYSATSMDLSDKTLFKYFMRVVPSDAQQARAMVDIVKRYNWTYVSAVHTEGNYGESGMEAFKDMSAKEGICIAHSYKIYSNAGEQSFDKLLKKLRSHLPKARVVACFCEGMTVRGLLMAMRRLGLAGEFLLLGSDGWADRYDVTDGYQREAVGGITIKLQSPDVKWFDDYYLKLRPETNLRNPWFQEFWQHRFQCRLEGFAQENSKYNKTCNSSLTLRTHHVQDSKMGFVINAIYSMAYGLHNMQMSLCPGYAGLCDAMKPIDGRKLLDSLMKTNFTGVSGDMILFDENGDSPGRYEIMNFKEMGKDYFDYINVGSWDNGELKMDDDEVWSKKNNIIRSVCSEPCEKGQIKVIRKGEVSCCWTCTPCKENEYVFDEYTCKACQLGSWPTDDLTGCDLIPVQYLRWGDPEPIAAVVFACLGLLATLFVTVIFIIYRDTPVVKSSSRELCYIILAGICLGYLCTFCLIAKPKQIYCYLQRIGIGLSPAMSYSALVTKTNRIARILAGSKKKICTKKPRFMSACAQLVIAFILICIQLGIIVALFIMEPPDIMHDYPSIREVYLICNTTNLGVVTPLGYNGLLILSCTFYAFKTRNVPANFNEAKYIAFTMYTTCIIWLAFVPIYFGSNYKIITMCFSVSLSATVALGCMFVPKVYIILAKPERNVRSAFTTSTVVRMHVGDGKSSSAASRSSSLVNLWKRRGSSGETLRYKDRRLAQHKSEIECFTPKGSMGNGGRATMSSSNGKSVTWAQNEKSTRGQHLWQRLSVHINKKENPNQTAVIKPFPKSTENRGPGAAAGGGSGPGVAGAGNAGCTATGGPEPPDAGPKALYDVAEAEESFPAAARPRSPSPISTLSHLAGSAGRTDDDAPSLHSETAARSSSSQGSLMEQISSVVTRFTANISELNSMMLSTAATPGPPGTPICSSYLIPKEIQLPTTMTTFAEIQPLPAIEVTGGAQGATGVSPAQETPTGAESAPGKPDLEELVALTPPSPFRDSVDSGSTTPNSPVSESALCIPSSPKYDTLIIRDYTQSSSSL
Test: PubChem AID 588710
Settings: HEK293 rat mGluR5 membranes, [3H]methoxyPEPy displacement
measured attribute: pIC50
pIC50 (log units): -log10 of the concentration in mol/L.

Quick note, pIC50 for C[C@@H](NC(=O)c1ccc(C#Cc2cccc(F)c2)cn1)C(C)(C)O landed at 8.32
